Target: Bcl-2 protein (Recombinant Human Bcl-2 Protein) (Homo sapiens)
Construct: purchased Novus NBP2-34889
Sequence (P10415 whole entry): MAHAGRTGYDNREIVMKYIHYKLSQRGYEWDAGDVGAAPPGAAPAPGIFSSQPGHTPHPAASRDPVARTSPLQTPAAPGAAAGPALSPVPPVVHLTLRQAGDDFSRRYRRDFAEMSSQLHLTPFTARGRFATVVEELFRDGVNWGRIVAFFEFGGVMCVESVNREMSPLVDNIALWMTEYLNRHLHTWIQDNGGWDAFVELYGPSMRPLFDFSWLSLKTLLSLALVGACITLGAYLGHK
Assay: Binding evaluation of mixture library compounds to Bcl-2 using AS-MS (affinity selection mass spectrometry)
Conditions: AS-MS on the mixture of 1200 library compounds; ASMS Ratio(%)=(A−C)/B×100; replicate n = 1
Observed Property: ASMS ratio (%) n = 1
Supply the numeric figure in %, leaving out any unit text.

- CCOc1cccc(-c2csc(CN3CCN(c4ccc(C(=O)Nc5ccc(OC)cc5)nn4)CC3)c2)c1: 0.0
- CCOc1cccc(-c2ccc(C(C)N3CCN(c4ccc(C(=O)Nc5ccc(OC)cc5)cc4)CC3)c(F)c2)c1 (centres unmarked): 4.7

Below: the item to evaluate.
Looking up `CCOc1cccc(-c2csc(CN3CCN(c4ccc(C(=O)N(C)CC56CC7CC(CC(C7)C5)C6)nn4)CC3)c2)c1` , I found its ASMS ratio (%) n = 1 recorded as −3.8
